Molecular target: T1, recombinant human ROR1 extracellular domain (human, UniProt Q01973 30-406)
T1 construct: biotinylated for the filter lifts; also called huROR1-ECD; human ROR1-ECD
T1 sequence (Q01973 30-406 limits assumed): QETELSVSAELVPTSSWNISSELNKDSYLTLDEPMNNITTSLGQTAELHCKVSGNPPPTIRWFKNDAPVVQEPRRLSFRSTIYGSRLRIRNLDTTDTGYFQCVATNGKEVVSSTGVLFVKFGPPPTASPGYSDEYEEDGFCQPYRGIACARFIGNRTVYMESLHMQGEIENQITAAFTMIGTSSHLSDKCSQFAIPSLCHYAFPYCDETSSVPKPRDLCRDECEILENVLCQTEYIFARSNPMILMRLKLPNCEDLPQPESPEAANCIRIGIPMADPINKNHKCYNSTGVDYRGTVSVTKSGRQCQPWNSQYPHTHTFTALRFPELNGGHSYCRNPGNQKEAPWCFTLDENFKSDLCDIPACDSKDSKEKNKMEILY
Assay: ELISA, soluble Fab on coated huROR1-ECD
result-type: pKd
Note on pKd: it is the negative log10 of concentration, concentration in mol/L.

Req: pKd for Ab1 Fab variant H2 S69V (Fab, V domains shown, Fab) VH: QVQLQESGPGLVKPSQTLSLTCTVSGYAFTAYNIHWVRQAPGQGLEWMGSFDPYDGGSVYNQKFKDRLTISKDTSKNQVVLTMTNMDPVDTATYYCARGWYYFDYWGHGTLVTVSS VL: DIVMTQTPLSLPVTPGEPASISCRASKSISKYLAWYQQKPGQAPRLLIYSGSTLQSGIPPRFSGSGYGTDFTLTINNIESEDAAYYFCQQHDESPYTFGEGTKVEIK ?
Resp: 9.00

Req: Endpoint output: pKd of Ab1 Fab variant L1 S32A (Fab, V domains shown, Fab) VH: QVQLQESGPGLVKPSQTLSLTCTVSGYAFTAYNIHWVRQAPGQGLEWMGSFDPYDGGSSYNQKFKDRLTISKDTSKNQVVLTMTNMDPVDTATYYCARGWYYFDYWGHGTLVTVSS VL: DIVMTQTPLSLPVTPGEPASISCRASKSIAKYLAWYQQKPGQAPRLLIYSGSTLQSGIPPRFSGSGYGTDFTLTINNIESEDAAYYFCQQHDESPYTFGEGTKVEIK . Value?
Resp: 8.96

Req: pKd for Ab1 Fab variant H1 T32E (Fab, V domains shown, Fab) VH: QVQLQESGPGLVKPSQTLSLTCTVSGYAFEAYNIHWVRQAPGQGLEWMGSFDPYDGGSSYNQKFKDRLTISKDTSKNQVVLTMTNMDPVDTATYYCARGWYYFDYWGHGTLVTVSS VL: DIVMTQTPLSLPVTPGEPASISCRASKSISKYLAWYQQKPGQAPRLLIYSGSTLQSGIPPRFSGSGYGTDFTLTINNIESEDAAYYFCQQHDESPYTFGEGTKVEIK ?
Resp: 8.48

Cited source: patent US20230021388A1
